Ref: patent US4929620A

Tested on: sterol synthesis
Measurement notes: CSI screen: incorporation of 14C-acetate into nonsaponifiable lipid by rat liver homogenate (inhibition of cholesterol biosynthesis)
Type: biochemical
Experimental setup: 50% inhibition of sterol synthesis over a one-hour period, livers of rats fed 5% cholestyramine chow for four days
pIC50: −log10 of the molar value.
Value type: pIC50

- Molecule: "Cc1nc(C)c(/C=C/[C@@H]2C[C@@H](O)CC(=O)O2)c(-c2ccc(F)cc2)n1 (relative stereo)"
  pIC50: 6.89
- Molecule: "Cc1cc(C)cc(-c2nc(-c3ccccc3)nc(C)c2/C=C/[C@@H]2C[C@@H](O)CC(=O)O2)c1 (relative stereo)"
  pIC50: 6.66
- Molecule: "Cc1nc(-c2ccccc2)nc(-c2ccc(F)cc2)c1/C=C/[C@@H]1C[C@@H](O)CC(=O)O1 (relative stereo)"
  pIC50: 6.82
